A set of compounds tested on HCT-15, with measured GI50:

Ask | Please give the measured GI50 for this compound: COc1cc(S(=O)(=O)Nc2ccc(-c3csc(N4C(=O)C(Cl)C4c4ccccc4O)n3)cc2)ccc1Cl (centres undefined)
Reply | > 100 µM

Ask | Item under review: Nc1nc(-c2ccc3ccccc3c2)cc(-c2cc(-c3ccc4ccccc4c3)nc(N)n2)n1 . Reported GI50?
Reply | > 100 µM

Ask | Give its GI50 value. Item: O=[N+]([O-])C(/C(Cl)=C(/Cl)N1CCOCC1)=C1\NCCO1
Reply | > 100 µM

Ask | Please report the recorded GI50 for CC1OC1C(=O)P(=O)(O)O (centres undefined) .
Reply | > 100 µM

* * *

test system: HT-29; assay: NCI tumour cell line growth inhibition, 48 h
The source made the active and inactive calls. No stated cut-off is given here; in the data, active = GI50 up to about 1.1 µM and inactive = higher.
Outcome measure: GI50

Ask | What value of measured GI50 is listed for CC1(C)[C@H](C(=O)O)N2C(=O)[C@@H](NS(=O)(=O)c3ccc([N+](=O)[O-])cc3)[C@H]2S1(=O)=O ?
Reply | > 100 µM (inactive)

Ask | Entry COc1c(CC(C)O)c2c3c(CC(C)O)c(OC)c(=O)c4c(O)cc5c(c6c(cc(O)c(c1=O)c62)OCO5)c43 (stereo not drawn) has what GI50?
Reply | 0.364 µM (active)

Ask | What GI50 value was documented for this compound, COc1cc2c(cc1OC)C(=O)N(NC1=NCCN1)C2=O ?
Reply | > 100 µM (inactive)

* * *

system: COLO 205; assay: NCI tumour cell line growth inhibition, 48 h
The source made the active and inactive calls. No stated cut-off is given here; in the data, active = GI50 up to about 1.1 µM and inactive = higher.
// one of Y = active, N = inactive, no free text

Ask | Look up the recorded call for C[N+](C)(C)c1ncnc2c1ncn2C1CC(O)C(CO)O1 (configuration not stated) in this test.
Reply | N

Ask | Outcome? COC(=O)c1ccccc1C1CN=NC12Cc1c(C)cccc1C2=O (configuration not stated)
Reply | N

Ask | Hi, sorry to bother you, what did the test record for CCO[C@]12C[C@H](OC)[C@@]3(O)CC(C1[C@H]3OCc1ccccc1)C13C4C2[C@H](OC)C1[C@](COC)(CN4CC)[C@H](O)C[C@@H]3OC (some centres not stated) ?
Reply | N

Ask | Record request — test call for COc1ccc(/C=C/C(=O)c2cc(CN(C)C)c(O)c(CN(C)C)c2)cc1
Reply | N

Ask | Give the logged outcome of this assay for the following compound: CCCNc1ncnc2[nH]ncc12
Reply | N

Ask | How did this test come out for CC(C)(C)c1cc(/C=C2/NC(=O)NC2=O)cc(C(C)(C)C)c1O ?
Reply | N

Ask | Tell me the assay call for ClC(/N=N/c1ccccc1)=N/Nc1ccccc1 please.
Reply | N

Ask | Could you kindly confirm the outcome this assay logged for C=C(CCOC)CCC1CCCCC/C1=N\N(C)C (configuration not stated) ?
Reply | N

Ask | Call for entry O=C1C2c3[nH]c4ccccc4c3[C@@H]3CCCCC3C2C(=O)N1c1ccccc1 (some centres not stated) :
Reply | N

Ask | For Cc1c2cc[n+](C)cc2c(C)c2c1[nH]c1ccccc12 , what call appears in the results of this test?
Reply | Y

Ask | Recorded test outcome, item CC(C)CC(NC(=O)OC(C)(C)C)C(=O)Nc1ccc(Nc2nc(F)nc(-c3c4ccccc4cn3C)n2)cc1 (configuration not stated)
Reply | N

Ask | Please state the recorded outcome for this compound: CC1(C)C(=O)C(C)(C)C12SSC1(S2)C(C)(C)C(=O)C1(C)C
Reply | N

Ask | // return assay outcome for CCOC(=O)CCC(NC(=O)Cc1ccc(Nc2nc3cc(F)c(F)cc3nc2C(=O)OCC)cc1)C(=O)OCC (configuration not stated)
Reply | N

Ask | // return assay outcome for COC(=O)C(C(=O)C(=O)Nc1ccc(C)cc1C)c1nc2ccc([N+](=O)[O-])cc2nc1O (configuration not stated)
Reply | N

Ask | Assay outcome for COc1ccc(/N=N/C(=O)NC(CC(C)C)C(N)=O)cc1 (configuration not stated) : what was it?
Reply | N

Ask | Please state the recorded outcome for this compound: Nc1ccc2cc(S(=O)(=O)O)cc(O)c2c1/N=N/c1ccc(NC(=O)Nc2ccc(/N=N/c3c(N)ccc4cc(S(=O)(=O)O)cc(O)c34)c(S(=O)(=O)O)c2)cc1S(=O)(=O)O
Reply | N

Ask | Would you mind telling me which call this test gave O=C(c1nc2ccc([N+](=O)[O-])cc2nc1O)C(O)c1ccc2c(c1)OCO2 (configuration not stated) ?
Reply | N

Ask | Could you check what this test reported for O=Cc1cc(O)ccc1Br ?
Reply | N

Ask | Could you kindly confirm the outcome this assay logged for NC(=O)N/N=C(\CC1OC(=O)c2ccccc21)c1ccco1 (configuration not stated) ?
Reply | N

Ask | # lookup: test call for CN(C(=O)Cc1ccccc1)n1cn[n+](CC(=O)OC(C)(C)C)c1
Reply | N

Ask | State the result this test recorded for O=C1C(Br)=C(Br)C(=O)c2ccc(=O)ccc21 .
Reply | N

Ask | What was the test verdict on CC(=O)OCC1=CC2CCC3C(C)(CCC[C@]3(C)COC(C)=O)C23CC[C@H]1C3 (some centres not stated) ?
Reply | N

Ask | Please let me know the test result on file for O=C(c1ccco1)N(C(=S)N1CCN(c2ccccc2)CC1)c1ccccc1 .
Reply | N

Ask | For CCOC(=O)CC[C@H](NC(=O)[C@H](N)Cc1ccc(N(CCCl)CCCl)cc1)C(=O)OCC , which call appears in the assay record?
Reply | N

Ask | Name the outcome recorded for Cc1nn(C(=O)Cc2ccccc2)c2c1C(c1ccc(O)cc1O)SC(=N)N2 (configuration not stated) in the assay.
Reply | N

Ask | Given Cc1c2c(cc3c1[nH]c1ccccc13)C(c1ccc(Cl)cc1)=NCC2 , state the outcome it received in this test.
Reply | Y

Ask | What did the test return for COc1ccc2c(c1)[n+]([O-])c(C(C)=O)c(C)[n+]2[O-] ?
Reply | N

* * *

Record form. Attribute: GI50. Fill in for each entry.
system: BT-549; assay: NCI tumour cell line growth inhibition, 48 h
Activity calls are given as the source filed them. No stated cut-off is given here; in the data, active = GI50 up to about 1.1 µM and inactive = higher.

Ask | Could you tell me which GI50 is on file for CCOC(=O)CC[C@H](NC(=O)[C@H](N)Cc1ccc(N(CCCl)CCCl)cc1)C(=O)OCC ?
Reply | 26.2 µM (inactive)

Ask | Entry Clc1ccc(/N=C/c2cc3cc(Br)ccc3nc2Cl)cc1 : reported GI50 = ?
Reply | > 50 µM (inactive)

Ask | Consider the molecule shown here: Cc1ccc(S(=O)(=O)N/N=C2/C3C(CC2(C)C)C2(C)CCCC3(C)C2O)cc1 (centres undefined) What is its recorded GI50?
Reply | 14.3 µM (inactive)

Ask | GI50 lookup needed for N[C@]1(C(=O)O)C[C@@H]2C(Br)=NO[C@@H]2C1 , thanks.
Reply | > 100 µM (inactive)

Ask | Query: GI50; subject: COc1ccc(-n2c(C)nc3ccc(NC4OC(COC(C)=O)C(OC(C)=O)C(OC(C)=O)C4OC(C)=O)cc3c2=O)cc1 (centres undefined)
Reply | > 100 µM (inactive)

Ask | Using the record for CC1=C(C)SC(=C2Sc3[n-]c(=O)[nH]c(=O)c3S2)S1.CCCC[N+](CCCC)(CCCC)CCCC , report its GI50.
Reply | > 100 µM (inactive)

Ask | What value of GI50 has been reported for the following molecule? Nc1nc(SCc2ccccc2[N+](=O)[O-])c2[nH]cnc2n1
Reply | 26.2 µM (inactive)

Ask | Given the molecule CN(C)/C=C/c1ccnc2c1C(=O)c1ccccc1C2=O , what is its reported GI50?
Reply | 3.59 µM (inactive)

Ask | Given the molecule O=C1C=CC(=O)c2c1cc1ccccc1c2O , what is its reported GI50?
Reply | 9.38 µM (inactive)

Ask | So what does the record say about GI50 for Oc1c2ccccc2c2c3c(cccc13)N=N2 ?
Reply | 30.8 µM (inactive)

Ask | So what does the record say about GI50 for CS(=O)(=O)Nc1ccc2ccccc2c1-c1c(NS(C)(=O)=O)ccc2ccccc12 ?
Reply | > 25 µM (inactive)

Ask | So what does the record say about GI50 for COc1ccc(CC2COc3cc(O)cc(O)c3C2=O)cc1O (centres undefined) ?
Reply | 82.2 µM (inactive)

Ask | Consider the molecule shown here: Cc1oc2c(Cl)cc(O)c(Cl)c2c2cccc1-2 What is its recorded GI50?
Reply | 23.6 µM (inactive)

Ask | Which measured GI50 value corresponds to CN(C)CC1CCC/C(=C\c2ccccc2)C1=O (centres undefined) ?
Reply | 7.69 µM (inactive)

* * *

system: HCC 2998; assay: NCI tumour cell line growth inhibition, 48 h
Active and inactive are the calls of the source. Cut-off read from the data, not from the text of the source: active = GI50 up to about 1.1 µM and inactive = higher.
Outcome measure: GI50

Ask | Quick check: GI50 of CSC1=N/C(=C\c2c[nH]c3ccccc23)C(=O)N1 ?
Reply | 21.9 µM (inactive)

Ask | Give the measured GI50 of O=C1C2c3[nH]c4ccccc4c3[C@@H]3CCCCC3C2C(=O)N1c1ccccc1 (some centres not stated) .
Reply | 19.3 µM (inactive)

Ask | May I ask what GI50 has been recorded for N#Cc1c(-c2ccc(Cl)cc2)c(C#N)c(=O)n(NS(=O)(=O)c2ccccc2)c1O ?
Reply | 13.8 µM (inactive)

Ask | Can you look up the measured GI50 of NCc1ccc(C(=O)O)cc1 for me?
Reply | > 100 µM (inactive)

Ask | Please give the measured GI50 for this compound: Cc1cccc(-c2nc3ccc([N+](=O)[O-])cc3c(=O)o2)c1
Reply | > 100 µM (inactive)

Ask | If you can, please state the reported GI50 value of COC(=O)CCC(C)[C@H]1CCC2C3C(C[C@H](OC(C)=O)[C@@]21C)[C@@]1(C)CCC2(C[C@H]1C[C@H]3OC(C)=O)OOC1(CCCC1)OO2 (some centres not stated) .
Reply | > 100 µM (inactive)

Ask | Please look up its GI50: COc1nc(C(Cl)(Cl)Cl)c(Cl)c(OC)c1Cl
Reply | 46.1 µM (inactive)
